Data provenance is ChEMBL document CHEMBL5154639.

- test-details: Cytotoxicity against human HepG2 cells assessed as reduction in cell viability incubated for 24 hrs by MTT assay
- Type: toxicity, cell-based
parameter-measured: CC50 at 24 h (µM)
Answer format: numeric, µM implied, no suffix.

get_value(item= "Brc1ccc(Nc2nc3ccccc3nc2Nc2ccc(Br)cc2)cc1" , readout=CC50 at 24 h) returns 7.12

---

- System: Schistosoma mansoni
- test-details: Antischistosomal activity against Schistosoma mansoni Puerto-Rican schistosomula assessed as inhibition of parasite motility measured after 72 hrs
- Type: functional, organism-based
parameter-measured: EC50 (µM)
Numeric answer only, unit µM assumed.

EC50 recorded for this compound, "Brc1ccc(Nc2nc3ccccc3nc2Nc2ccc(Br)cc2)cc1" , is 1.21
